Organism: Homo sapiens
test: To identify inhibition of the IFN signalling (Jak-Stat) pathway via expression of an eGFP reporter gene under the control of an IFN-stimulated response element (ISRE) containing MxA promoter.
Type: functional
Design: scale not given: direction of the effect not stated beside the values
test-context: 30 µM
readout-label: Percent Effect (%)
Expressed in %, but write only the number.

{"molecule": "CC(NC(=O)NCCCn1ccnc1)c1ccc2c(c1)CCC(=O)N2 (stereo unspecified)", "readout-unit": "%", "Percent Effect": 10.8}

Q: Sample Cc1cc2n(n1)CC(CNCc1ccnc(-n3ccnc3C)c1)CN2 (stereo unspecified) — what was its Percent Effect?
A: 4.37

Q: Sample Cc1ccc(CN2CCC(F)(F)C3(CCN(c4cnccn4)C3)C2)o1 (stereo unspecified) — what was its Percent Effect?
A: 0.47

Q: Sample `COc1cc(NC(=O)c2ccccc2F)c(C(=O)N(C)C)cc1OC` — what was its Percent Effect?
A: -4.11

Q: Sample `CS(=O)(=O)NC[C@]12COC[C@H]1CN(C(=O)C1CCCCC1)C2` — what was its Percent Effect?
A: -0.518

Q: Sample `CCC(=O)N1CCc2[nH]cnc2C12CCN(C(=O)CCS(C)(=O)=O)CC2` — what was its Percent Effect?
A: 22.1

Q: Sample `Cn1cnc(S(=O)(=O)N2CCN(Cc3ccco3)CC2)c1Cl` — what was its Percent Effect?
A: 8.03

Q: Sample `CS(=O)(=O)N1CCC(Oc2ccc(C(=O)N3CCSCC3)cc2Cl)CC1` — what was its Percent Effect?
A: 25.7

Q: Sample COc1cccc(-c2nc(C)c(C(=O)NC(CO)CCSC)s2)c1 (stereo unspecified) — what was its Percent Effect?
A: 15.6

Q: Sample CCc1nc(C2CCCN(C(=O)c3cccc4cn[nH]c34)C2)no1 (stereo unspecified) — what was its Percent Effect?
A: 19.4

Q: Sample Cc1cc(CNC(=O)C2CCCCN2C(=O)OC(C)(C)C)no1 (stereo unspecified) — what was its Percent Effect?
A: 4.89
